Record form. Attribute: pIC50. Fill in for each entry.
# study.system: CETP (Homo sapiens, UniProt P11597)
# Sequence (P11597 18-493): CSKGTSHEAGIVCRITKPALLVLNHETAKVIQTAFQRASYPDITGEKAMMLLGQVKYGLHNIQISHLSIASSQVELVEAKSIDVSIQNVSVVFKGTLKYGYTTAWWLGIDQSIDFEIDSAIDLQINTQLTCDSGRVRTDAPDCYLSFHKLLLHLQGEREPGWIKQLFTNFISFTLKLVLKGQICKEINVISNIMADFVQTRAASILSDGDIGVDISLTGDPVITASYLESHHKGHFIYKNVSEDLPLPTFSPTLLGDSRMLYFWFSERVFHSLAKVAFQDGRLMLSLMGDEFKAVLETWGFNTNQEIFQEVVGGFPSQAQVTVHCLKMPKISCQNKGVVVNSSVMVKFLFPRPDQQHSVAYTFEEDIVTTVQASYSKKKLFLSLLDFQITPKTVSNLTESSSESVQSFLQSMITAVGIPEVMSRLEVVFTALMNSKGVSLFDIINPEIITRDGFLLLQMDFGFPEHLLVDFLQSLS
# test.description: Inhibitory activity against CETP in human plasma (Roar CETP activity kit, fluorescence)
# settings: plasma from healthy men diluted 1:10 in assay buffer, 37° C., 3 hrs, fluorescence 465/535 nm; read-out: IC50, Inhibition of CETP Activity in Human Plasma
Give bare numbers, as −log10 of the molar value.

Worked cases, answers included:
-- ask Dear colleague, I am looking for the recorded pIC50 of the following molecule: `CCN(c1ncc(-c2cccn2C)cc1CN1C(=O)O[C@H](c2cc(C(F)(F)F)cc(C(F)(F)F)c2)[C@@H]1C)C1CCCCC1`
-- reply 7.96

-- ask Given `C[C@H]1[C@@H](c2cc(C(F)(F)F)cc(C(F)(F)F)c2)OC(=O)N1Cc1cc(C(F)(F)F)cnc1N(CC(=O)OC(C)(C)C)C1CCOCC1` , state its recorded pIC50.
-- reply 6.42

-- ask Given C[C@H]1C(c2cc(C(F)(F)F)cc(C(F)(F)F)c2)OC(=O)N1Cc1nc(N2CCCC2)cnc1N(C)C[C@H]1CC[C@H](CC(=O)O)CC1 (stereo partly drawn) , state its recorded pIC50.
-- reply 7.37

-- ask Report pIC50 for CCN(C[C@H]1CC[C@H](CC(=O)O)CC1)c1ncc(-c2cc(C)cs2)nc1CN1C(=O)OC(c2cc(C(F)(F)F)cc(C(F)(F)F)c2)[C@@H]1C (stereo partly drawn) please.
-- reply 7.25

-- ask # input molecule: CCN(C[C@H]1CC[C@H](CC(=O)O)CC1)c1ncc(-c2cncc(F)c2)nc1CN1C(=O)OC(c2cc(C(F)(F)F)cc(C(F)(F)F)c2)[C@@H]1C (stereo partly drawn) ; wanted: its pIC50
-- reply 7.61

Next, consider the following molecule.
-- ask Which value of pIC50 has been reported for `CCN(c1ncc(-c2ccc(C)o2)cc1CN1C(=O)O[C@H](c2cc(C(F)(F)F)cc(C(F)(F)F)c2)[C@@H]1C)C1CCCCC1` in the records?
-- reply 7.51

Data credit: patent US9533977B2
